compounds and their reported inhibition at 50 µM
- Test system: Pseudomonas aeruginosa PA14
- Measurement notes: In vitro antibacterial activity (growth inhibition, OD600), P. aeruginosa
- Format: cell-based
- Measurement parameters: PA14, 50 μM compound, Table 1 and main text, read-out: PA14 inh. at 50 μM
Enter your answer as a number in %; do not include the unit.

- Test smiles: "O=C(Nc1ccc(CN2CCNCC2)cc1)c1cc(-c2cc(Cl)ccc2O)[nH]n1"
  Scale unit: "%"
  inhibition at 50 µM: 62

Shift focus to the following entry.
State the recorded inhibition at 50 µM for this entry: O=C(Nc1cc(CNC2=NCCN2)cc(C(F)(F)F)c1)c1cc(-c2cc(Cl)ccc2O)[nH]n1
18
